test system: U251 CNS; assay: NCI tumour cell line growth inhibition, 48 h
Recorded endpoint: TGI

[[record]]
molecule = "N#CCCN(c1ccc(/C=N/c2nc(-c3ccccc3)cs2)cc1)S(=O)(=O)c1ccccc1"
recorded_endpoint = "TGI"
val = "> 100 µM"

[[record]]
molecule = "N#CCC(=O)N/N=C(\\CCN1CCCC1)CC(c1ccccc1)c1c(O)c2ccccc2oc1=O (stereo not given)"
recorded_endpoint = "TGI"
val = "> 100 µM"

[[record]]
molecule = "CN(C)c1ccc(/C=C(\\C#N)c2nc(-c3cc4ccccc4oc3=O)cs2)cc1"
recorded_endpoint = "TGI"
val = "44.5 µM"

[[record]]
molecule = "CC(=O)N/N=C1/NN(C(C)=O)C2(S1)C(=O)Nc1ccc(C)cc12 (stereo not given)"
recorded_endpoint = "TGI"
val = "> 100 µM"

[[record]]
molecule = "OC1c2c(ccc3c2CCC3)CC12Cc1ccccc1C2 (stereo not given)"
recorded_endpoint = "TGI"
val = "29.7 µM"

[[record]]
molecule = "CC(=O)Nc1nc2ncc(C=O)nc2c(=O)[nH]1"
recorded_endpoint = "TGI"
val = "> 100 µM"

[[record]]
molecule = "O=C1c2ccccc2C(=O)c2c(Nc3ccc(CCO)cc3)ccc(O)c21"
recorded_endpoint = "TGI"
val = "85.8 µM"

[[record]]
molecule = "O=[N+]([O-])c1ccc(N/N=C2\\C=CCCC2)c([N+](=O)[O-])c1"
recorded_endpoint = "TGI"
val = "> 100 µM"

[[record]]
molecule = "Cc1cc(S(=O)(=O)O)ccc1N=Nc1c(O)ccc2ccccc12"
recorded_endpoint = "TGI"
val = "> 100 µM"

[[record]]
molecule = "CC=C(CBr)CCC(Br)C(C)(C)Cl (mixture of isomers)"
recorded_endpoint = "TGI"
val = "> 10 µM"

